Measurement protocol: Inhibition of HIV protease
Design: species or system Human immunodeficiency virus
Recorded metric: Ki

* O=C(N[C@H]1c2ccccc2C[C@H]1O)[C@H](Cc1ccccc1)C[Si](O)(O)C[C@@H](Cc1ccccc1)C(=O)N[C@H]1c2ccccc2C[C@H]1O | 2.7 nM

----------
Experimental system: Neutrophil elastase (Homo sapiens)
Measurement protocol: Uncompetitive inhibition of human neutrophil elastase assessed as hydrolysis of N-succinyl-Ala-Ala-Pro-Val-p-nitroanilide incubated for 2 hrs measured for 20 mins by Dixon and Cornish-Bowden analysis
pKi: −log10 of the molar value.
Recorded metric: pKi

• CCCCNC(=O)CC[Si](O)(O)[C@@H](CC(C)C)NC(=O)[C@@H](NC(=O)Cc1ccc2ccccc2c1)[C@@H](C)CC = 5.46
• CCCCNC(=O)CC[Si](O)(O)[C@H](CC(C)C)NC(=O)[C@@H](NC(=O)c1ccc2ccccc2c1)[C@@H](C)CC = 5.40
• CCCCNC(=O)CC[Si](O)(O)[C@H](CC(C)C)NC(=O)[C@@H](NC(=O)Cc1ccccc1)[C@@H](C)CC = 5.30

----------
Experimental system: Plasminogen (Homo sapiens)
Sequence (P00747 97-580 limits assumed): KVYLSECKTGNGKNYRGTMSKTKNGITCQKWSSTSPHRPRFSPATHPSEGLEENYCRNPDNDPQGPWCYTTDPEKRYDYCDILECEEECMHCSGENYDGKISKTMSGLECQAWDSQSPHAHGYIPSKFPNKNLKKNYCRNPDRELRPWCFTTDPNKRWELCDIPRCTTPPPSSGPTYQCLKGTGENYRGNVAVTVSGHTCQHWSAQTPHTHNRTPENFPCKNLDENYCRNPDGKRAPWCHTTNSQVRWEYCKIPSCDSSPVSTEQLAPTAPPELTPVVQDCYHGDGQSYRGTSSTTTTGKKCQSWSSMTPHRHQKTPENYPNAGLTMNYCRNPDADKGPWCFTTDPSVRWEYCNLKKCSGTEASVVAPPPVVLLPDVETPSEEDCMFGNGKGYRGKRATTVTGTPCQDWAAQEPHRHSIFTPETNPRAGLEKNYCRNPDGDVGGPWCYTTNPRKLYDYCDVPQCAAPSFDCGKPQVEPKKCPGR
Sequence (P00747 581-810 limits assumed): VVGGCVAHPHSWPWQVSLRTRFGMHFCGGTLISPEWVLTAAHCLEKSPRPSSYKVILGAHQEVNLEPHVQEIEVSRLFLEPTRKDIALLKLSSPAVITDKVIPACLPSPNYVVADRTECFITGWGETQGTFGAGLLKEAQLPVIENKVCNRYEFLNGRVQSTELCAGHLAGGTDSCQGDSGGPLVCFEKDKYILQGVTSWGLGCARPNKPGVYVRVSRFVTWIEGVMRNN
Measurement protocol: Inhibition of plasmin assessed as hydrolysis of H-D-Val-L-Leu-L-Lys-p-nitroanilide incubated for 2 hrs measured for 20 mins by microplate reader analysis
pIC50: −log10 of the molar value.
Recorded metric: pIC50

- Cl.NCCc1ccc(S(=O)(=O)F)cc1: 3.62

----------
Prothrombin (Homo sapiens) data, read-out pIC50
pIC50: −log10 of the molar value.
Recorded metric: pIC50

* Cl.NCCc1ccc(S(=O)(=O)F)cc1 | 4.21
* CCCCNC(=O)CNC(=O)[C@H](CC(C)C)NC(=O)[C@@H](NC(=O)Cc1ccc2ccccc2c1)[C@@H](C)CC | 4.00
* CCCCNC(=O)CC[Si](c1ccccc1)(c1ccccc1)[C@H](CC(C)C)NC(=O)[C@@H](NC(=O)Cc1ccc2ccccc2c1)[C@@H](C)CC | 4.04

----------
Experimental system: Neutrophil elastase (Homo sapiens, UniProt P08246)
Measurement protocol: Inhibition of human neutrophil elastase
pIC50: −log10 of the molar value.
Listed below: pIC50 values for each entry.
Recorded metric: pIC50

• CCCCNC(=O)CC[Si](O)(O)[C@@H](CC(C)C)NC(=O)[C@@H](NC(=O)Cc1ccc2ccccc2c1)[C@@H](C)CC = 6.52
• CCCCNC(=O)CC[Si](O)(O)[C@H](CC(C)C)NC(=O)[C@@H](NC(=O)Cc1ccc2ccccc2c1)[C@@H](C)CC = 6.52

----------
Experimental system: Plasminogen (Homo sapiens)
Measurement protocol: Inhibition of plasmin assessed as hydrolysis of H-D-Val-L-Leu-L-Lys-p-nitroanilide at 100 uM incubated for 2 hrs measured for 20 mins by microplate reader analysis
Active and inactive are the calls of the source. The rule behind the calls is not given here.
Recorded metric: inhibition

• CCCCNC(=O)CC[Si](c1ccccc1)(c1ccccc1)[C@H](CC(C)C)NC(=O)[C@@H](NC(=O)Cc1ccc2ccccc2c1)[C@@H](C)CC = inactive
• CCCCNC(=O)CC[Si](O)(O)[C@H](CC(C)C)NC(=O)[C@@H](NC(=O)c1ccc2ccccc2c1)[C@@H](C)CC = inactive
• CCCCNC(=O)CC[Si](O)(O)[C@H](CC(C)C)NC(=O)[C@@H](NC(=O)Cc1ccccc1)[C@@H](C)CC = inactive
• CCCCNC(=O)CC[Si](O)(O)[C@@H](CC(C)C)NC(=O)[C@@H](NC(=O)Cc1ccc2ccccc2c1)[C@@H](C)CC = inactive

----------
Experimental system: Cathepsin G (Homo sapiens) (UniProt P08311)
Sequence (whole entry): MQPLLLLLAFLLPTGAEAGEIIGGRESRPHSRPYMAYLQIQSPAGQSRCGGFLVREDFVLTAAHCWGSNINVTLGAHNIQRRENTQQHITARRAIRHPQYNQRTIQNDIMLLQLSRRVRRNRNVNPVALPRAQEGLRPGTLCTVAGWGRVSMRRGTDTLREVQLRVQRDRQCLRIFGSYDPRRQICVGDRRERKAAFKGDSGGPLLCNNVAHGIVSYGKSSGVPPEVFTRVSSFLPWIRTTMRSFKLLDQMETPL
Measurement protocol: Inhibition of cathepsin G assessed as hydrolysis of N-succinyl-Ala-Ala-Pro-Phe-p-nitroanilide at 100 uM incubated for 2 hrs measured for 20 mins by microplate reader analysis
Activity calls are given as the source filed them. No cut-off for these calls is given here.
Recorded metric: inhibition

• CCCCNC(=O)CC[Si](O)(O)[C@H](CC(C)C)NC(=O)[C@@H](NC(=O)Cc1ccccc1)[C@@H](C)CC = inactive
• CCCCNC(=O)CC[Si](O)(O)[C@H](CC(C)C)NC(=O)[C@@H](NC(=O)c1ccc2ccccc2c1)[C@@H](C)CC = inactive
• CCCCNC(=O)CNC(=O)[C@H](CC(C)C)NC(=O)[C@@H](NC(=O)Cc1ccc2ccccc2c1)[C@@H](C)CC = inactive
• CCCCNC(=O)CC[Si](O)(O)[C@@H](CC(C)C)NC(=O)[C@@H](NC(=O)Cc1ccc2ccccc2c1)[C@@H](C)CC = inactive

----------
Property: pIC50; scope: individual compounds
Experimental system: Neutrophil elastase (Homo sapiens, UniProt P08246)
Measurement protocol: Inhibition of human neutrophil elastase assessed as hydrolysis of N-succinyl-Ala-Ala-Pro-Val-p-nitroanilide incubated for 2 hrs measured for 20 mins by microplate reader analysis
pIC50: −log10 of the molar value. Residues, ends and D or L forms follow the SMILES beside them. *: point of attachment. PhAc = O=C(Cc1ccccc1)*; NHBu = CCCCN*
Recorded metric: pIC50

• CCCCNC(=O)CNC(=O)[C@H](CC(C)C)NC(=O)[C@@H](NC(=O)Cc1ccc2ccccc2c1)[C@@H](C)CC = 4.85
• CCCCNC(=O)CC[Si](O)(O)[C@H](CC(C)C)NC(=O)[C@@H](NC(=O)C(F)(F)F)[C@@H](C)CC = 4.34
• CCCCNC(=O)CC[Si](O)(O)[C@@H](CC(C)C)NC(=O)[C@@H](NC(=O)Cc1ccc2ccccc2c1)[C@@H](C)CC = 4.74
• CC[C@H](C)[C@H](NC(=O)Cc1ccc2ccccc2c1)C(=O)N[C@@H](CC(C)C)[Si](C)(O)O = 4.41
• CCCCNC(=O)CC[Si](O)(O)[C@H](CC(C)C)NC(=O)[C@@H](NC(=O)Cc1ccccc1)[C@@H](C)CC = 4.42
• CCCCNC(=O)CC[Si](O)(O)[C@H](CC(C)C)NC(=O)[C@@H](NC(=O)c1ccc2ccccc2c1)[C@@H](C)CC = 4.80
• CCCCNC(=O)CNC(=O)[C@H](CC(C)C)NC(=O)[C@@H](NC(=O)Cc1ccccc1)[C@@H](C)CC (PhAc-Ile-Leu-Gly-NHBu) = 4.29
• CCCCNC(=O)CC[Si](c1ccccc1)(c1ccccc1)[C@H](CC(C)C)NC(=O)[C@@H](NC(=O)Cc1ccc2ccccc2c1)[C@@H](C)CC = 4.85

----------
Measured IC50 accompanies every entry in the list below.
Measurement protocol: Inhibition of trypsin assessed as hydrolysis of H-D-Pro-L-Phe-L-Arg-p-nitroanilide incubated for 2 hrs measured for 20 mins by microplate reader analysis
Recorded metric: IC50 (µM)

- CCCCNC(=O)CC[Si](c1ccccc1)(c1ccccc1)[C@H](CC(C)C)NC(=O)[C@@H](NC(=O)Cc1ccc2ccccc2c1)[C@@H](C)CC: 58
- CCCCNC(=O)CNC(=O)[C@H](CC(C)C)NC(=O)[C@@H](NC(=O)Cc1ccc2ccccc2c1)[C@@H](C)CC: 89
- Cl.NCCc1ccc(S(=O)(=O)F)cc1: 10

----------
Experimental system: Neutrophil elastase (Homo sapiens, UniProt P08246)
Sequence (P08246 whole entry): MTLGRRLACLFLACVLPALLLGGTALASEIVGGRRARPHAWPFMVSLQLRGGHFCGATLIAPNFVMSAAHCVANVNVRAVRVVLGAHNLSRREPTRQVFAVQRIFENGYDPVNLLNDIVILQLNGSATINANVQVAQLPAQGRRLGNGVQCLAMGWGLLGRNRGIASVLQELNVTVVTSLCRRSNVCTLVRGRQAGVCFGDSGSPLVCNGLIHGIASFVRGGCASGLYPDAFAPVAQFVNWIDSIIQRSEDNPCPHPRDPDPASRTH
Measurement protocol: Noncompetitive inhibition of human neutrophil elastase assessed as hydrolysis of N-succinyl-Ala-Ala-Pro-Val-p-nitroanilide incubated for 2 hrs measured for 20 mins by Dixon and Cornish-Bowden analysis
pKi: −log10 of the molar value.
Recorded metric: pKi

* CCCCNC(=O)CC[Si](c1ccccc1)(c1ccccc1)[C@H](CC(C)C)NC(=O)[C@@H](NC(=O)Cc1ccc2ccccc2c1)[C@@H](C)CC | 4.89
* CCCCNC(=O)CNC(=O)[C@H](CC(C)C)NC(=O)[C@@H](NC(=O)Cc1ccc2ccccc2c1)[C@@H](C)CC | 4.74

----------
Experimental system: Cathepsin G (Homo sapiens)
Recorded metric: IC50

• Cl.NCCc1ccc(S(=O)(=O)F)cc1 = 250 µM
